Source listed as patent US11066414B2.

# Tested on: TNFα
# assay_remarks: Cot Monocyte TNFα Cell Based Assay
# condition_details: Homo sapiens, Monocyte, read-out: EC50 TNF, LPS-stimulated human monocytes, TNFα
Label T when EC50 < 100 nM; otherwise F.

smiles_record	label_class
Cn1ncc2c([C@H](Nc3cc(Cl)c4ncc(C#N)c(NCC(C)(C)C)c4c3)c3cn(C4(C)CC4)nn3)cccc21	F

Confirm or reject: EC50 of Cc1nc(F)ccc1[C@H](Nc1cc(Cl)c2ncc(C#N)c(NCC(C)(C)CO)c2c1)c1cn(C2(C(F)F)CC2)nn1 lies strictly below 100 nM
F

Lookup CCc1ncccc1[C@H](Nc1cc(C#N)c2ncc(C#N)c(NCC(C)(C)C)c2c1)c1cn(C2(C(F)(F)F)CC2)nn1
T

Same lookup for Cc1cncc2cccc([C@H](Nc3cc(Cl)c4ncc(C#N)c(NCC(C)(C)C)c4c3)c3cn(C4(C(F)(F)F)CC4)nn3)c12 , please.
F

Repeat for the following compound: Cc1nc(F)ccc1[C@H](Nc1cc(Cl)c2ncc(C#N)c(NCC(C)(C)C(F)(F)F)c2c1)c1cn(C2(C(F)(F)F)CC2)nn1
F

Do the same for CC(C)(C)N1CCC(n2cc([C@@H](Nc3cc(Cl)c4ncc(C#N)c(Nc5ccc(F)c(Cl)c5)c4c3)c3ccc(Cl)nc3Cl)nn2)CC1 please
F
